Hello, the source for this data is paper PMC5029940, in case you need it.

biological target: human muscle nicotinic acetylcholine receptor (nAChR), adult form, (α1)2β1δε (Homo sapiens, UniProt P02708+Q04844+Q07001, P02708:V275M); construct: full-length untagged subunits; CMV-alpha1 plasmid plus EF1alpha beta1-delta-epsilon triple plasmid, transient in HEK293; heteropentamer; with Acetylcholine receptor subunit beta; assay: Fluo-4 Ca2+ flux, FLIPR
property label: pEC50
Answers are plain numbers, as −log10 of the molar value.

Each of the following entries comes with a recorded value; kindly state pEC50 for each.
1. O=c1cccc2n1C[C@@H]1CNC[C@H]2C1
2. C[N+]1(C)CCN(c2ccccc2)CC1
3. CN1CCC[C@H]1c1cccnc1

Output:
6.23
7.17
6.25

====

biological target: human muscle nicotinic acetylcholine receptor (nAChR), adult form, (α1)2β1δε (Homo sapiens, UniProt P02708+Q04844+Q07001, P02708:Y233N); construct: full-length untagged subunits; CMV-alpha1 plasmid plus EF1alpha beta1-delta-epsilon triple plasmid, transient in HEK293; heteropentamer; with Acetylcholine receptor subunit beta; assay: Fluo-4 Ca2+ flux, FLIPR
property label: pEC50
Numbers only, as −log10 of the molar value.

CN1CCC[C@H]1c1cccnc1 5.86
C[N+]1(C)CCN(c2ccccc2)CC1 6.15

Input: Please report the recorded pEC50 for O=c1cccc2n1C[C@@H]1CNC[C@H]2C1 .
Output: 5.93

====

target: human muscle nicotinic acetylcholine receptor (nAChR), adult form, (α1)2β1δε (Homo sapiens, UniProt P02708+Q04844+Q07001); construct: full-length untagged subunits; CMV-alpha1 plasmid plus EF1alpha beta1-delta-epsilon triple plasmid, transient in HEK293; heteropentamer; with Acetylcholine receptor subunit beta; test: Fluo-4 Ca2+ flux, FLIPR; settings: read-out: α1-Wt / EC50
Would you mind telling me the reported EC50 of each entry?
Answers are plain numbers, in nM.

CN1CCC[C@H]1c1cccnc1 3650
C[N+]1(C)CCN(c2ccccc2)CC1 1630

Next compound, EC50 to be filled in.
Input: May I ask what EC50 has been recorded for O=c1cccc2n1C[C@@H]1CNC[C@H]2C1 ?
Output: 2350
